biological target: EGFR (Homo sapiens (Human)); test: ErbB Enzyme Assay (HTRF KinEASE-TK), Assay 3; assay type: biochemical; conditions: EGFR enzyme
Sequence (P00533 25-1210): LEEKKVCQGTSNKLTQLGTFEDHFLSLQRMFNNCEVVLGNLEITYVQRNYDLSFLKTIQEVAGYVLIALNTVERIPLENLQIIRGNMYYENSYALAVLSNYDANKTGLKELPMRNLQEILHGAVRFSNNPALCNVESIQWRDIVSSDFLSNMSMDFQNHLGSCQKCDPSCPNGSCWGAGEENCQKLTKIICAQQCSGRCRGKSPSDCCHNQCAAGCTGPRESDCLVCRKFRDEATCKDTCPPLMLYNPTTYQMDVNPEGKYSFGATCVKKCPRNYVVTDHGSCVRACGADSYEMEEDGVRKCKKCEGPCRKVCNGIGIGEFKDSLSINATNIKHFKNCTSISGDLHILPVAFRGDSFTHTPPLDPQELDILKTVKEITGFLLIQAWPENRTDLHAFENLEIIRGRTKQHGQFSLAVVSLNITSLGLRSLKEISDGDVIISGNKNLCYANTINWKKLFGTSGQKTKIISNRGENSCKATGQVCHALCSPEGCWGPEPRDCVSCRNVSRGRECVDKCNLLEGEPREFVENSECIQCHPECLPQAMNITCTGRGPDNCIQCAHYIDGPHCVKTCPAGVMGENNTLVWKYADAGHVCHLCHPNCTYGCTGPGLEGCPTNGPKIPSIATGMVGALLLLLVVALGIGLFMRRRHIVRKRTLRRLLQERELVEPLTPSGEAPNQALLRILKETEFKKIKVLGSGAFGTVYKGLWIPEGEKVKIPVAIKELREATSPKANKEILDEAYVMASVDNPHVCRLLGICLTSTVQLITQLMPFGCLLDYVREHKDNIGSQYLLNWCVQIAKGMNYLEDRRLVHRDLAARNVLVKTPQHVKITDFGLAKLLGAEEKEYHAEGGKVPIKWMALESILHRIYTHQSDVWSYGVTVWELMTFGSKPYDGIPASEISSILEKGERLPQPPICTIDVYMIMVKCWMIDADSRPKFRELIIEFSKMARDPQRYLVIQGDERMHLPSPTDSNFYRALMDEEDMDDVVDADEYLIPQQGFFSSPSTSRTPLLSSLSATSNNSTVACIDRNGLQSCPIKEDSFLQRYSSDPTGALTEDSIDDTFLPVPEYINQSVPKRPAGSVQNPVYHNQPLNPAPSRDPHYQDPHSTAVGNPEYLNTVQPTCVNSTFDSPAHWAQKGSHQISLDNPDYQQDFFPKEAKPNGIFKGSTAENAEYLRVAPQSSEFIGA
pIC50: −log10 of the molar value.
pIC50 values by entry
metric: pIC50

compound=CC#CC(=O)N1CCC12CN(c1ccc3ncnc(Nc4cc(C)c(Oc5ccn6ncnc6c5)cc4F)c3n1)C2 system_tested="EGFR (Homo sapiens (Human))" metric=pIC50 censor_symbol=≤ obs_value=5.00
compound=CC#CC(=O)N1CCN(c2ccc3ncnc(Nc4ccc(Oc5ccn6ncnc6c5)c(C)c4F)c3n2)C[C@H]1C system_tested="EGFR (Homo sapiens (Human))" metric=pIC50 censor_symbol=≤ obs_value=5.00
compound="C=CC(=O)N1CC[C@@H]2C[C@H](c3ccc4ncnc(Nc5cc(C)c(Oc6ccn7ncnc7c6)cc5F)c4n3)C[C@@H]21 (single isomer, unassigned)" system_tested="EGFR (Homo sapiens (Human))" metric=pIC50 censor_symbol== obs_value=6.37
compound=C=CC(=O)N1C2CC1CN(c1ccc3ncnc(Nc4cc(C)c(Oc5ccc6c(c5)ncn6C)cc4F)c3n1)C2 system_tested="EGFR (Homo sapiens (Human))" metric=pIC50 censor_symbol=≤ obs_value=5.00
compound=C=CC(=O)N1CCN(c2ccc3ncnc(Nc4ccc(Oc5cnc6c(c5)ncn6C)c(Cl)c4)c3n2)CC1 system_tested="EGFR (Homo sapiens (Human))" metric=pIC50 censor_symbol== obs_value=5.94
compound=C=CC(=O)N1CCC(Oc2nc3c(Nc4ccc(Oc5ccc6cn(C)nc6c5)c(Cl)c4F)ncnc3cc2OC)CC1 system_tested="EGFR (Homo sapiens (Human))" metric=pIC50 censor_symbol== obs_value=6.96
compound="C=CC(=O)N1CCN(c2ccc3ncnc(Nc4ccc(Oc5ccn6ncnc6c5)c(C)c4F)c3n2)C[C@@H]1C1CC1 (racemic)" system_tested="EGFR (Homo sapiens (Human))" metric=pIC50 censor_symbol== obs_value=5.06
compound=C=CC(=O)N1CCN(c2ccc3ncnc(Nc4ccc(Oc5ccn6ncnc6c5)c(C)c4F)c3n2)CC1(C)C system_tested="EGFR (Homo sapiens (Human))" metric=pIC50 censor_symbol== obs_value=5.18
compound=C=CC(=O)N1C[C@@H]2C[C@H]1CN(c1ccc3ncnc(Nc4ccc(Oc5ccc6c(c5)ncn6C)c(C)c4F)c3n1)C2 system_tested="EGFR (Homo sapiens (Human))" metric=pIC50 censor_symbol=≤ obs_value=5.00
compound=C=CC(=O)N1C[C@H]2CC[C@@H](C1)[C@@H]2c1ccc2ncnc(Nc3ccc(Oc4ccn5ncnc5c4)c(C)c3F)c2n1 system_tested="EGFR (Homo sapiens (Human))" metric=pIC50 censor_symbol== obs_value=5.71
compound=C=CC(=O)N1CCN(c2nc3c(Oc4ccc(Oc5ccc6c(c5)ncn6C)c(C)c4)ncnc3cc2OC)CC1 system_tested="EGFR (Homo sapiens (Human))" metric=pIC50 censor_symbol== obs_value=5.29
compound=C=CC(=O)N1CCC(Oc2ccc3ncnc(Nc4ccc(Oc5ccn6ncnc6c5)c(C)c4F)c3n2)CC1 system_tested="EGFR (Homo sapiens (Human))" metric=pIC50 censor_symbol== obs_value=5.68
compound=C=CC(=O)N1CCN(c2ccc3ncnc(Nc4ccc(Oc5ccn6ncnc6c5)c(Cl)c4F)c3n2)C[C@@H]1C system_tested="EGFR (Homo sapiens (Human))" metric=pIC50 censor_symbol== obs_value=6.28
compound=C=CC(=O)N1CCCN(c2ccc3ncnc(Nc4ccc(Oc5ccn6ncnc6c5)c(Cl)c4)c3n2)CC1 system_tested="EGFR (Homo sapiens (Human))" metric=pIC50 censor_symbol== obs_value=5.23
compound=C=CC(=O)N1[C@@H]2CC[C@H]1C[C@@H](c1ccc3ncnc(Nc4ccc(Oc5ccn6ncnc6c5)c(C)c4)c3n1)C2 system_tested="EGFR (Homo sapiens (Human))" metric=pIC50 censor_symbol== obs_value=5.48
compound=C=CC(=O)N1CCN(c2ccc3ncnc(Nc4cc(C)c(Oc5ccc6c(c5)ncn6C)cc4F)c3n2)CC1(C)C system_tested="EGFR (Homo sapiens (Human))" metric=pIC50 censor_symbol== obs_value=5.14
compound=C=CC(=O)N1CC(Sc2ccc3ncnc(Nc4ccc(Oc5ccn6ncnc6c5)c(C)c4F)c3n2)C1 system_tested="EGFR (Homo sapiens (Human))" metric=pIC50 censor_symbol== obs_value=6.29
compound=C=CC(=O)Nc1ccc2ncnc(Nc3ccc(Oc4ccc5c(c4)ncn5C)c(C)c3)c2n1 system_tested="EGFR (Homo sapiens (Human))" metric=pIC50 censor_symbol== obs_value=6.43
compound="C=CC(=O)N1CC(c2ccc3ncnc(Nc4ccc(Oc5ccc6c(c5)ncn6C)c(C)c4F)c3n2)CCC12CC2 (stereo not shown)" system_tested="EGFR (Homo sapiens (Human))" metric=pIC50 censor_symbol== obs_value=6.19
